B1: Caulobacter ParB omega fusion; a variant is named by its letters at X, in order, B8GW30 (parent)
chain: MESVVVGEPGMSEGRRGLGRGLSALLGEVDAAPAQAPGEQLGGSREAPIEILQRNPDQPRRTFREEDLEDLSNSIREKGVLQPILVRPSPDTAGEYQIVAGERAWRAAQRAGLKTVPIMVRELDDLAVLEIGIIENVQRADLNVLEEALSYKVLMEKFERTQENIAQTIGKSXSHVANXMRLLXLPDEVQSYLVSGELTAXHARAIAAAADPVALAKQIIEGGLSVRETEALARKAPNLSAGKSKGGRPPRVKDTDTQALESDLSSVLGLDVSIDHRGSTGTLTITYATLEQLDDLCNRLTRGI

- Variants of: B1
- Test description: one-hybrid fitness for binding NBS DNA (the Noc-binding site; scaled: cognate 1, non-cognate 0); higher = stronger binding
- Experimental context: with NBS DNA site
In all, about 81,000 sequences were measured (“one-hybrid fitness for binding NBS DNA”: median about -0.1, highest 2% from about 0.36 on). The entries come from a sample that favours the highest values as a whole.
Measured quantity: one-hybrid fitness for binding NBS DNA

Variant spec: NLFC
Measured quantity: one-hybrid fitness for binding NBS DNA
Result: ≤ 0.2

Variant spec: QMVY
Measured quantity: one-hybrid fitness for binding NBS DNA
Result: ≤ 0.2

Variant spec: AMGA
Measured quantity: one-hybrid fitness for binding NBS DNA
Result: ≤ 0.2

Variant spec: PLRC
Measured quantity: one-hybrid fitness for binding NBS DNA
Result: ≤ 0.2

Variant spec: TVSI
Measured quantity: one-hybrid fitness for binding NBS DNA
Result: ≤ 0.2

Variant spec: QMHD
Measured quantity: one-hybrid fitness for binding NBS DNA
Result: ≤ 0.2

Variant spec: RMAT
Measured quantity: one-hybrid fitness for binding NBS DNA
Result: 0.426

Variant spec: RMGD
Measured quantity: one-hybrid fitness for binding NBS DNA
Result: ≤ 0.2

Variant spec: QMHS
Measured quantity: one-hybrid fitness for binding NBS DNA
Result: 0.451

Variant spec: QHHD
Measured quantity: one-hybrid fitness for binding NBS DNA
Result: ≤ 0.2

Variant spec: TAGV
Measured quantity: one-hybrid fitness for binding NBS DNA
Result: ≤ 0.2

Variant spec: RLFT
Measured quantity: one-hybrid fitness for binding NBS DNA
Result: 0.238

Variant spec: RMRN
Measured quantity: one-hybrid fitness for binding NBS DNA
Result: 0.25

Variant spec: RIFT
Measured quantity: one-hybrid fitness for binding NBS DNA
Result: ≤ 0.2

Variant spec: RYAH
Measured quantity: one-hybrid fitness for binding NBS DNA
Result: ≤ 0.2

Variant spec: QVIH
Measured quantity: one-hybrid fitness for binding NBS DNA
Result: ≤ 0.2

Variant spec: QKNY
Measured quantity: one-hybrid fitness for binding NBS DNA
Result: 0.26

Variant spec: LTMS
Measured quantity: one-hybrid fitness for binding NBS DNA
Result: ≤ 0.2

Variant spec: WSSW
Measured quantity: one-hybrid fitness for binding NBS DNA
Result: ≤ 0.2

Variant spec: THLW
Measured quantity: one-hybrid fitness for binding NBS DNA
Result: ≤ 0.2

Variant spec: RMRS
Measured quantity: one-hybrid fitness for binding NBS DNA
Result: 0.642

Variant spec: QAKY
Measured quantity: one-hybrid fitness for binding NBS DNA
Result: 0.531

Variant spec: NNAI
Measured quantity: one-hybrid fitness for binding NBS DNA
Result: ≤ 0.2

Variant spec: EGQR
Measured quantity: one-hybrid fitness for binding NBS DNA
Result: ≤ 0.2

Variant spec: QAHN
Measured quantity: one-hybrid fitness for binding NBS DNA
Result: ≤ 0.2

Variant spec: QTIY
Measured quantity: one-hybrid fitness for binding NBS DNA
Result: ≤ 0.2

Variant spec: ILKV
Measured quantity: one-hybrid fitness for binding NBS DNA
Result: ≤ 0.2

Variant spec: QLHD
Measured quantity: one-hybrid fitness for binding NBS DNA
Result: ≤ 0.2

Variant spec: RSGS
Measured quantity: one-hybrid fitness for binding NBS DNA
Result: 0.419

Variant spec: TRKN
Measured quantity: one-hybrid fitness for binding NBS DNA
Result: 0.212

Variant spec: RSRN
Measured quantity: one-hybrid fitness for binding NBS DNA
Result: ≤ 0.2

Variant spec: RMYS
Measured quantity: one-hybrid fitness for binding NBS DNA
Result: 0.361

Variant spec: QGKK
Measured quantity: one-hybrid fitness for binding NBS DNA
Result: ≤ 0.2

Variant spec: LPLA
Measured quantity: one-hybrid fitness for binding NBS DNA
Result: ≤ 0.2

Variant spec: GILL
Measured quantity: one-hybrid fitness for binding NBS DNA
Result: ≤ 0.2

Variant spec: PRPV
Measured quantity: one-hybrid fitness for binding NBS DNA
Result: ≤ 0.2

Variant spec: RLAD
Measured quantity: one-hybrid fitness for binding NBS DNA
Result: ≤ 0.2

Variant spec: RYTW
Measured quantity: one-hybrid fitness for binding NBS DNA
Result: ≤ 0.2

Variant spec: LLKM
Measured quantity: one-hybrid fitness for binding NBS DNA
Result: ≤ 0.2

Variant spec: TKDT
Measured quantity: one-hybrid fitness for binding NBS DNA
Result: ≤ 0.2

Variant spec: LVLD
Measured quantity: one-hybrid fitness for binding NBS DNA
Result: ≤ 0.2

Variant spec: RYFT
Measured quantity: one-hybrid fitness for binding NBS DNA
Result: ≤ 0.2

Variant spec: QKVY
Measured quantity: one-hybrid fitness for binding NBS DNA
Result: ≤ 0.2

Variant spec: RMAP
Measured quantity: one-hybrid fitness for binding NBS DNA
Result: ≤ 0.2

Variant spec: SYNI
Measured quantity: one-hybrid fitness for binding NBS DNA
Result: ≤ 0.2

Variant spec: RSGN
Measured quantity: one-hybrid fitness for binding NBS DNA
Result: ≤ 0.2

Variant spec: LARA
Measured quantity: one-hybrid fitness for binding NBS DNA
Result: ≤ 0.2

Variant spec: RSRD
Measured quantity: one-hybrid fitness for binding NBS DNA
Result: ≤ 0.2

Variant spec: QAHS
Measured quantity: one-hybrid fitness for binding NBS DNA
Result: 0.398

Variant spec: QMHH
Measured quantity: one-hybrid fitness for binding NBS DNA
Result: 0.221

Variant spec: ARVR
Measured quantity: one-hybrid fitness for binding NBS DNA
Result: ≤ 0.2

Variant spec: QAHH
Measured quantity: one-hybrid fitness for binding NBS DNA
Result: ≤ 0.2

Variant spec: HKPS
Measured quantity: one-hybrid fitness for binding NBS DNA
Result: ≤ 0.2

Variant spec: RMFT
Measured quantity: one-hybrid fitness for binding NBS DNA
Result: 0.261

Variant spec: RSAN
Measured quantity: one-hybrid fitness for binding NBS DNA
Result: ≤ 0.2

Variant spec: RIAT
Measured quantity: one-hybrid fitness for binding NBS DNA
Result: 0.376

Variant spec: FTGV
Measured quantity: one-hybrid fitness for binding NBS DNA
Result: ≤ 0.2

Variant spec: IIHR
Measured quantity: one-hybrid fitness for binding NBS DNA
Result: ≤ 0.2

Variant spec: ITVR
Measured quantity: one-hybrid fitness for binding NBS DNA
Result: ≤ 0.2

Variant spec: TYNY
Measured quantity: one-hybrid fitness for binding NBS DNA
Result: ≤ 0.2

Variant spec: THTW
Measured quantity: one-hybrid fitness for binding NBS DNA
Result: ≤ 0.2

Variant spec: QLHS
Measured quantity: one-hybrid fitness for binding NBS DNA
Result: 0.373

Variant spec: RSRS
Measured quantity: one-hybrid fitness for binding NBS DNA
Result: 0.593

Variant spec: RSGD
Measured quantity: one-hybrid fitness for binding NBS DNA
Result: ≤ 0.2

Variant spec: RNIK
Measured quantity: one-hybrid fitness for binding NBS DNA
Result: ≤ 0.2

Variant spec: NHMG
Measured quantity: one-hybrid fitness for binding NBS DNA
Result: ≤ 0.2

Variant spec: RLGD
Measured quantity: one-hybrid fitness for binding NBS DNA
Result: ≤ 0.2
